# Test system: HUVEC/MSC spheroids viability
# Experimental details: Human HUVEC/MSC cell line growth inhibition [KRAS2];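 note: percent of DMSO vehicle control luminescence so 100% = untreated viability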
# Condition details: second compound 0.3 µM; first compound 0.00316 µM; active compounds read low
Observation type: viability, T/C (%)
All answers are understood in %, so give the number only.

Below: 3 molecules and their reported viability, T/C.
>>> meas_value("CN(C)C/C=C/C(=O)Nc1cc2c(Nc3ccc(F)c(Cl)c3)ncnc2cc1O[C@H]1CCOC1 + C=CC(=O)N1CCN(c2nc(OCC3CCCN3C)nc3c2CCN(c2cccc4cccc(C)c24)C3)CC1CC#N")
76.1
>>> meas_value("CCN1CCN(Cc2ccc(Nc3ncc(F)c(-c4cc(F)c5nc(C)n(C(C)C)c5c4)n3)nc2)CC1 + C=CC(=O)N1CCN(c2nc(OCC3CCCN3C)nc3c2CCN(c2cccc4cccc(C)c24)C3)CC1CC#N")
74.5
>>> meas_value("Cn1ncnc1[C@H]1c2n[nH]c(=O)c3cc(F)cc(c23)N[C@@H]1c1ccc(F)cc1 + C=CC(=O)N1CCN(c2nc(OCC3CCCN3C)nc3c2CCN(c2cccc4cccc(C)c24)C3)CC1CC#N")
75.7

Now for a further molecule.
# lookup: viability, T/C of CC(C)n1nc(-c2ccc3oc(N)nc3c2)c2c(N)ncnc21 + C=CC(=O)N1CCN(c2nc(OCC3CCCN3C)nc3c2CCN(c2cccc4cccc(C)c24)C3)CC1CC#N
50.5
